Collected koff values appear next to each entry.
Target: T1, human OX40 (form used in the assay not stated) (human, UniProt P43489 29-214, limits assumed)
T1 sequence (looked up): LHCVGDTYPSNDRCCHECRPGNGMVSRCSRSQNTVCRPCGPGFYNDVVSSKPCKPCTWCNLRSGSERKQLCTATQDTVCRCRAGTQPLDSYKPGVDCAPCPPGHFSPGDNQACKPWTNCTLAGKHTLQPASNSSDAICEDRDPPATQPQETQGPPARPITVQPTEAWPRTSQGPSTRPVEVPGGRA
Test: Biacore, format not described
Record the value in s⁻¹, omitting the unit from your answer.

Examples from the recorded data:
{"binder": "humanized A10 whole antibody A (A10 LC (SH) / A10 L70) (antibody, V domains shown) VH: QVQLVQSGAEVKKPGASVKVSCKASGYTFTSYWMHWVRQAPGQGLEWMGEIHPKSGNSNYNEKFKGRVTLTRDTSTSTVYMELSSLRSEDTAVYYCARGPEYSNFWFAYWGQGTLVTVSS VL: DIVMTQSPDSLAVSLGERATINCKASQSVDYDGDSYMHWYQQKPGQPPKLLIYAASNLESGVPDRFSGSGSGTDFTLTISSLQAEDVAVYYCHQSNEDPWTFGQGTKVEIK", "displayUnit": "s⁻¹", "val": 0.000179}
{"binder": "humanized A10 whole antibody C (A10 LC (TH) hu 336 / A10 L70) (antibody, V domains shown) VH: QVQLVQSGAEVKKPGASVKVSCKASGYTFTSYWMHWVRQAPGQGLEWMGEIHPKSGNSNYNEKFKGRVTLTRDTSTSTVYMELSSLRSEDTAVYYCARGPEYSNFWFAYWGQGTLVTVSS VL: DIVMTQSPDSLAVSLGERATINCKASQTVDYDGDSYMHWYQQKPGQPPKLLIYAASNLESGVPDRFSGSGSGTDFTLTISSLQAEDVAVYYCHQSNEDPWTFGQGTKVEIK", "displayUnit": "s⁻¹", "val": 0.000151}
{"binder": "humanized A10 whole antibody D (A10 LC (SH) / A10 humanized) (antibody, V domains shown, also called A10-D; A10 D) VH: QVQLVQSGAEVKKPGASVKVSCKASGYTFTSYWMHWVRQAPGQGLEWMGEIHPKSGNSNYNEKFKGRVTMTRDTSTSTVYMELSSLRSEDTAVYYCARGPEYSNFWFAYWGQGTLVTVSS VL: DIVMTQSPDSLAVSLGERATINCKASQSVDYDGDSYMHWYQQKPGQPPKLLIYAASNLESGVPDRFSGSGSGTDFTLTISSLQAEDVAVYYCHQSNEDPWTFGQGTKVEIK", "displayUnit": "s⁻¹", "val": 0.00017}

Measured koff of humanized A10 whole antibody B (A10 LC (SN) / A10 L70) (antibody, V domains shown) VH: QVQLVQSGAEVKKPGASVKVSCKASGYTFTSYWMHWVRQAPGQGLEWMGEIHPKSGNSNYNEKFKGRVTLTRDTSTSTVYMELSSLRSEDTAVYYCARGPEYSNFWFAYWGQGTLVTVSS VL: DIVMTQSPDSLAVSLGERATINCKASQSVDYDGDSYMNWYQQKPGQPPKLLIYAASNLESGVPDRFSGSGSGTDFTLTISSLQAEDVAVYYCHQSNEDPWTFGQGTKVEIK : 0.000156

Measured koff of humanized A10 whole antibody F (A10 LC (TH) hu 336 / A10 humanized) (antibody, V domains shown, also called A10-F; humanized variant A10-F) VH: QVQLVQSGAEVKKPGASVKVSCKASGYTFTSYWMHWVRQAPGQGLEWMGEIHPKSGNSNYNEKFKGRVTMTRDTSTSTVYMELSSLRSEDTAVYYCARGPEYSNFWFAYWGQGTLVTVSS VL: DIVLTQSPTSLAVSLGQRATISCKASQTVDYDGDSYMHWYQQKPGQPPKLLIYAASNLESGVPDRFSGSGSGTDFTLTISSLQAEDVAVYYCHQSNEDPWTFGQGTKVEIK : 0.000158

Measured koff of humanized A10 whole antibody E (A10 LC (SN) / A10 humanized) (antibody, V domains shown) VH: QVQLVQSGAEVKKPGASVKVSCKASGYTFTSYWMHWVRQAPGQGLEWMGEIHPKSGNSNYNEKFKGRVTMTRDTSTSTVYMELSSLRSEDTAVYYCARGPEYSNFWFAYWGQGTLVTVSS VL: DIVMTQSPDSLAVSLGERATINCKASQSVDYDGDSYMNWYQQKPGQPPKLLIYAASNLESGVPDRFSGSGSGTDFTLTISSLQAEDVAVYYCHQSNEDPWTFGQGTKVEIK : 0.000191

Origin of the recorded values: patent US20100136030A1
